// data source = the supplement of paper PMC9732359

# METHOD DESCRIPTION: protein stability index of a GFP-peptide fusion (yeast GPS) (PSI 1-4); higher = more stable; sorted into four equal gates, so the index is relative within each strain
# TEST CONDITIONS: ubr1∆
VALUE KIND: protein stability index

Worked examples follow.
1) SEISIIDATLKEELLRD [RRP45] | 2.83
2) DKLLDFIRYDVKTPKKT [CSN12] | 2.99
3) FKVYEPLLLVGLDKFSN [RPS16A] | 2.14
4) SGQKTNRQVMHKMGVER [SIR3] | 3.27
5) LEQREQNENLPSDKSDS [SSN2] | 3.12
6) FPRNGKAPEAEQVLSAA [RPL13A] | 2.77
7) LEFSALSAADIVAQSEV [RPO31] | 3.17
8) LIKKAVSVRKHLERNRK [RPS13] | 3.28
9) LQVGDVVSTTAVIESVV [FAS1] | 2.01
10) FSYFFESFESYHNLTTH [RPN6] | 2.78

-- ask Recorded protein stability index for FEGNVATKAINGCIFTL [PRP8] , please?
-- reply 2.71

-- ask Recorded protein stability index for RSNKIKVVKTPGGILRA [RPL34A] , please?
-- reply 2.2

-- ask Recorded protein stability index for EKDAKINKLMEKDFQVN [SIR4] , please?
-- reply 3.47

-- ask Recorded protein stability index for FTYNKFLLNQNKQLSQS [YIL149C/MLP2] , please?
-- reply 3.17

-- ask Recorded protein stability index for KLINIKKFDISNDNLDL [MED1] , please?
-- reply 2.83

-- ask Recorded protein stability index for VSNIEGILDEIMFNHAR [RGR1] , please?
-- reply 2.99

-- ask Recorded protein stability index for DNSNVMTVKLESITYQK [RGR1] , please?
-- reply 2.93
